Source listed as patent US9175024B2.

Can you tell me IC50 for the items I'm about to list?
- Test system: Colon cancer SW480
- assayMethodText: MTT cytotoxicity, colon cancer SW480
- Type: cell-based
- conditionNotes: n = 6, Colon cancer SW480
Numbers only, in µM.

Examples with their reported IC50 follow.
CCN(CC)CCCC1CC(=O)[O][Pt]2([NH]C3CCC3[NH]2)[O]C1=O (stereo not shown) [Compound 16] = 84
NCCC(CC(=O)[O-])C(=O)[O-].N[C@@H]1CCCC[C@H]1N.[Pt+2] (relative stereo) [Compound 9] = 62
CCN(CC)CCCC(CC(=O)[O-])C(=O)[O-].NC1CCCC1N.[Pt+2] (racemic) [Compound 15] = 32

Please give IC50 for each item listed below.
1. NC1CCCCC1N.O=C([O-])CC(CCCN1CCCCC1)C(=O)[O-].[Pt+2] (racemic) [Compound 13]
2. CCN(CC)CCC(CC(=O)[O-])C(=O)[O-].NC1CCCCC1N.[Pt+2] (racemic) [Compound 10]
3. CN(C)CCCC1CC(=O)[O][Pt]2([NH]C3CCCCC3[NH]2)[O]C1=O (stereo not shown) [Compound 11]
4. NC(CC(=O)[O-])C(=O)[O-].NC1CCCCC1N.[Pt+2] (racemic) [ADP, reference compound]

Data returned:
95
5
22
98

Please give IC50 for each item listed below.
1. CC(=O)NC(CC(=O)[O-])C(=O)[O-].NC1CCCCC1N.[Pt+2] (stereo not shown) [Contrast Embodiment 1, reference compound]
2. CCNCCC1CC(=O)[O][Pt]2([NH]C3CCCCC3[NH]2)[O]C1=O (stereo not shown) [Compound 12]
3. CCCN(CCC)CCCC(CC(=O)[O-])C(=O)[O-].N[C@@H]1CCCC[C@H]1N.[Pt+2] (stereo not shown) [Compound 14]

Data returned:
[615, 72, 51]

----------
Can you tell me IC50 for the items I'm about to list?
- Tested on: Lewis lung cancer
- assayMethodText: MTT cytotoxicity, Lewis lung cancer
- Assay type: cell-based
- conditionNotes: n = 6, Lewis lung cancer
One number for each entry, in µM.

Examples with their reported IC50 follow.
CCN(CC)CCCC1CC(=O)[O][Pt]2([NH]C3CCC3[NH]2)[O]C1=O (stereo not shown) [Compound 16] = 33
NCCC(CC(=O)[O-])C(=O)[O-].N[C@@H]1CCCC[C@H]1N.[Pt+2] (relative stereo) [Compound 9] = 84
CCCN(CCC)CCCC(CC(=O)[O-])C(=O)[O-].N[C@@H]1CCCC[C@H]1N.[Pt+2] (stereo not shown) [Compound 14] = 37
NC1CCCCC1N.O=C([O-])CC(CCCN1CCCCC1)C(=O)[O-].[Pt+2] (racemic) [Compound 13] = 32

Please give IC50 for each item listed below.
1. CCNCCC1CC(=O)[O][Pt]2([NH]C3CCCCC3[NH]2)[O]C1=O (stereo not shown) [Compound 12]
2. NC(CC(=O)[O-])C(=O)[O-].NC1CCCCC1N.[Pt+2] (racemic) [ADP, reference compound]
3. CCN(CC)CCCC(CC(=O)[O-])C(=O)[O-].NC1CCCC1N.[Pt+2] (racemic) [Compound 15]

Data returned:
1: 69; 2: 162; 3: 51

----------
- System: normal mice
- assayMethodText: Acute toxic effect of platinum complex on normal mice (LD50, single intravenous administration)
- Format: in vivo, Kunming mice
- conditionNotes: single intravenous administration in 5% glucose solution, 14 days observation, Bliss method
reportedProperty: LD50 value

Examples with their reported LD50 value follow.
CN(C)CCCC1CC(=O)[O][Pt]2([NH]C3CCCCC3[NH]2)[O]C1=O (stereo not drawn) = 0.571 mmol/kg
CN(C)CCC(CC(=O)[O-])C(=O)[O-].NCC1CCC1CN.[Pt+2] (racemic) = 0.512 mmol/kg

Turning to the following molecule.
Data request: Give the measured LD50 value of CCN(CC)CCC1CC(=O)[O][Pt]2([NH]C(CO)C(CO)[NH]2)[O]C1=O (stereo not drawn) .
Data returned: 0.681 mmol/kg
